These entries and their values trace back to patent EP2123668A1.

- TARGET ENTITY: mAb F22-4
- METHOD NOTES: StopFlow antibody-ligand binding
- Set-up: species or system murine
READOUT: Kd (µM)
Output spec: scalar in µM, unitless text.

Known results for compounds:
COMPOUND: CO[C@@H]1O[C@@H](C)[C@H](O)[C@@H](O)[C@H]1O[C@@H]1O[C@@H](C)[C@H](O)[C@@H](O)[C@H]1O[C@@H]1O[C@H](CO)[C@@H](O)[C@H](O[C@@H]2O[C@@H](C)[C@H](O[C@H]3O[C@H](CO)[C@@H](O)[C@H](O)[C@H]3O)[C@@H](O)[C@H]2O)[C@H]1NC(C)=O
Kd (µM): 300
//
COMPOUND: COC1OC(C)C(OC2OC(CO)C(O)C(O)C2O)C(OC2OC(C)C(O)C(O)C2OC2OC(C)C(O)C(O)C2OC2OC(CO)C(O)C(OC3OC(C)C(OC4OC(CO)C(O)C(O)C4O)C(OC4OC(C)C(O)C(O)C4OC4OC(C)C(O)C(O)C4OC4OC(CO)C(O)C(O)C4NC(C)=O)C3O)C2NC(C)=O)C1O (centres unmarked) [DAB(E)CDAB(E)C]
Kd (µM): 5

Give the reported Kd for COC1OC(C)C(OC2OC(CO)C(O)C(O)C2O)C(OC2OC(C)C(O)C(O)C2OC2OC(C)C(O)C(O)C2OC2OC(CO)C(O)C(OC3OC(C)C(OC4OC(CO)C(O)C(O)C4O)C(OC4OC(C)C(O)C(O)C4O)C3O)C2NC(C)=O)C1O (centres unmarked) [B(E)CDAB(E)C] (system: mAb F22-4). 0.16

Give the reported Kd for CO[C@@H]1O[C@@H](C)[C@H](O)[C@@H](O)[C@H]1O[C@@H]1O[C@H](CO)[C@@H](O)[C@H](O[C@@H]2O[C@@H](C)[C@H](O[C@H]3O[C@H](CO)[C@@H](O)[C@H](O)[C@H]3O)[C@@H](O[C@@H]3O[C@@H](C)[C@H](O)[C@@H](O)[C@H]3O)[C@H]2O)[C@H]1NC(C)=O [B(E)CDA] (system: mAb F22-4). 3.5

* * *

- System: F22-4 antibody
- METHOD NOTES: ITC microcalorimetry
- Type: binding, murine
- APPLIED CONDITIONS: PBS buffer at 25°C
READOUT: ΔH (Kcal/mol)

Known results for compounds:
COMPOUND: COC1OC(C)C(O)C(O)C1OC1OC(CO)C(O)C(OC2OC(C)C(OC3OC(CO)C(O)C(O)C3O)C(O)C2O)C1NC(C)=O (centres unmarked)
TARGET ENTITY: F22-4 antibody
ΔH (Kcal/mol): -11,3±0,1 Kcal/mol

COMPOUND: COC1OC(C)C(OC2OC(CO)C(O)C(O)C2O)C(OC2OC(C)C(O)C(O)C2OC2OC(C)C(O)C(O)C2OC2OC(CO)C(O)C(OC3OC(C)C(OC4OC(CO)C(O)C(O)C4O)C(OC4OC(C)C(O)C(O)C4OC4OC(C)C(O)C(O)C4OC4OC(CO)C(O)C(O)C4NC(C)=O)C3O)C2NC(C)=O)C1O (centres unmarked) [DAB(E)CDAB(E)C]
TARGET ENTITY: F22-4 antibody
ΔH (Kcal/mol): -19,5±01,2 Kcal/mol

COMPOUND: COC1OC(C)C(OC2OC(CO)C(O)C(O)C2O)C(OC2OC(C)C(O)C(O)C2OC2OC(C)C(O)C(O)C2OC2OC(CO)C(O)C(OC3OC(C)C(OC4OC(CO)C(O)C(O)C4O)C(OC4OC(C)C(O)C(O)C4O)C3O)C2NC(C)=O)C1O (centres unmarked) [B(E)CDAB(E)C]
TARGET ENTITY: F22-4 antibody
ΔH (Kcal/mol): -19,5±0,2 Kcal/mol

COMPOUND: CO[C@@H]1O[C@@H](C)[C@H](O)[C@@H](O)[C@H]1O[C@@H]1O[C@H](CO)[C@@H](O)[C@H](O[C@@H]2O[C@@H](C)[C@H](O[C@H]3O[C@H](CO)[C@@H](O)[C@H](O)[C@H]3O)[C@@H](O[C@@H]3O[C@@H](C)[C@H](O)[C@@H](O)[C@H]3O)[C@H]2O)[C@H]1NC(C)=O [B(E)CDA]
TARGET ENTITY: F22-4 antibody
ΔH (Kcal/mol): -14,2±0,1 Kcal/mol

Give the reported ΔH (Kcal/mol) for CO[C@@H]1O[C@@H](C)[C@H](O)[C@@H](O)[C@H]1O[C@@H]1O[C@@H](C)[C@H](O)[C@@H](O)[C@H]1O[C@@H]1O[C@H](CO)[C@@H](O)[C@H](O[C@@H]2O[C@@H](C)[C@H](O[C@H]3O[C@H](CO)[C@@H](O)[C@H](O)[C@H]3O)[C@@H](O)[C@H]2O)[C@H]1NC(C)=O (system: F22-4 antibody). -10,8±0,1 Kcal/mol
